Hi there, I'd appreciate the recorded pIC50 for every entry that follows.
- Tgt: Delta-type opioid receptor (Homo sapiens, UniProt P41143)
- Sequence (P41143 whole entry): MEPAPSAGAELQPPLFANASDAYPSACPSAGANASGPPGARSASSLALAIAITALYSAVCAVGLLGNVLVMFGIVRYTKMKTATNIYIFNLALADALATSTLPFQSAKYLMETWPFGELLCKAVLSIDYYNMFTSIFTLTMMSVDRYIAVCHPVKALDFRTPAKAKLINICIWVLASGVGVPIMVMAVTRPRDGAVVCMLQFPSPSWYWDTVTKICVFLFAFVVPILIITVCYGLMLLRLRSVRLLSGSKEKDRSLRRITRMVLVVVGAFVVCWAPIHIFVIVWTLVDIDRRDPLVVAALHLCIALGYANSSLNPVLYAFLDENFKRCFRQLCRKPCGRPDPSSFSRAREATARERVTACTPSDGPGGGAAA
- Assay: Displacement of [125I]deltorphin 2 from human recombinant delta opioid receptor expressed in HEK cell membrane
Hey, just a heads up that pIC50 is the negative log base 10 of the concentration in molar.

Quick check: pIC50 of C[C@H]1CC=CC(=O)[C@@H]1C(=O)C[C@H]1CCCN1CCCO ?
4.49

Param item: C[C@H]1CC=CC(=O)[C@@H]1C(=O)C[C@@H]1CCCN1CCCO
4.49
